reportedEndpoint: melting point (°C)

INSERT INTO results (compound, quantityunit, censorsymbol, resultvalue) VALUES
  ('COC(=O)C=Cc1ccc([N+](=O)[O-])c(C=CC(=O)OC)c1', '°C', '=', 200),
  ('CCOC(=O)C(CSC(=O)C(C)(C)Br)NC(C)=O (stereo not drawn)', '°C', '>', 20),
  ('Cc1c(C)c(CCl)c(C)c(CCl)c1C', '°C', '=', 117),
  ('NNC(=S)Nc1ccc(C(F)(F)F)cc1', '°C', '=', 167),
  ('CC(=O)OC(OC(C)=O)c1ccco1', '°C', '=', 53.3),
  ('O=C(O)c1ccc(Cl)nc1Cl', '°C', '=', 148),
  ('CCN(C(=O)N(CC)c1ccccc1)c1ccccc1', '°C', '=', 79),
  ('NC(=S)NCCCc1ccccc1', '°C', '=', 111),
  ('COP1(=S)OCc2ccccc2O1 (stereo not drawn)', '°C', '=', 55),
  ('CCC(C)(Cl)Cl', '°C', '=', -74);
